Recorded values, source the supplement of paper PMC10724198.

# System: Saccharomyces cerevisiae
# protocol.text: protein stability index of tFT-peptide fusion (C-terminal peptide) (PSI (0-1 scale)); higher = more stable (slower turnover)
# experimental.parameters: genetic background: wild type; temperature: 30 C
In this section, each of the sequences is paired with its reported protein stability index.
endpoint.label: protein stability index

INSERT INTO assay_data (primary_sequence, target_desc, assay_result) VALUES
  ('RIEMDLALTEPL [ORC6 C-terminal 12 aa]', 'Saccharomyces cerevisiae', 0.685),
  ('LEQGFKVVSAKE [YCS4 C-terminal 12 aa]', 'Saccharomyces cerevisiae', 0.681),
  ('YEIEPDFDRLAV [SVP26 C-terminal 12 aa]', 'Saccharomyces cerevisiae', 0.681),
  ('TVIFSCVPGRRV [RAX1 C-terminal 12 aa]', 'Saccharomyces cerevisiae', 0.709),
  ('DDTLERAGRIKN [FAD1 C-terminal 12 aa]', 'Saccharomyces cerevisiae', 0.709),
  ('DECFCLARHEND [TDP1 C-terminal 12 aa]', 'Saccharomyces cerevisiae', 0.708),
  ('NIHQTDYIYARL [BUD16 C-terminal 12 aa]', 'Saccharomyces cerevisiae', 0.708),
  ('QVVDTIKDVHRC [YBR197C C-terminal 12 aa]', 'Saccharomyces cerevisiae', 0.706),
  ('CLSLDFVVPRPK [SHR5 C-terminal 12 aa]', 'Saccharomyces cerevisiae', 0.697),
  ('ENLRLKLKNFLR [MSH5 C-terminal 12 aa]', 'Saccharomyces cerevisiae', 0.688),
  ('LQVKAVRAKLDE [ALD4 C-terminal 12 aa]', 'Saccharomyces cerevisiae', 0.68);

* * *

# Test system: Saccharomyces cerevisiae
# protocol.text: protein stability index of tFT-peptide fusion (C-terminal peptide) (PSI (0-1 scale)); higher = more stable (slower turnover)
# experimental.parameters: genetic background: cdc53-1; temperature: 37 C
Readings of protein stability index for the listed sequences
endpoint.label: protein stability index

INSERT INTO measurements (primary_sequence, target_desc, assay_result) VALUES
  ('FFFCFFIFCFSL', 'Saccharomyces cerevisiae', 0.409),
  ('LLMPLLLHSLVW', 'Saccharomyces cerevisiae', 0.396),
  ('GFFFYFVLFGLS', 'Saccharomyces cerevisiae', 0.409);

* * *

Catalogue of protein stability index values
# Tested on: Saccharomyces cerevisiae
# protocol.text: protein stability index of tFT-peptide fusion (C-terminal peptide) (PSI (0-1 scale)); higher = more stable (slower turnover)
# experimental.parameters: genetic background: wild type; temperature: 30 C
endpoint.label: protein stability index

INSERT INTO measurements (primary_sequence, endpoint_label, assay_result) VALUES
  ('SGIRGWNLGEMW', 'protein stability index', 0.715),
  ('KRIIRSYHFLGC', 'protein stability index', 0.698),
  ('NKFETCIANMYI', 'protein stability index', 0.718),
  ('SLAVAPHIATQQ', 'protein stability index', 0.701),
  ('WFFPPLPPPLPR', 'protein stability index', 0.686),
  ('RWRRWCVVLFVV', 'protein stability index', 0.117),
  ('KKSQKSKNKTHN', 'protein stability index', 0.571),
  ('HLPASLHLDYSI', 'protein stability index', 0.675),
  ('RIWEVQFRRLSE', 'protein stability index', 0.823);

* * *

# Tested on: Saccharomyces cerevisiae
# protocol.text: protein stability index of tFT-peptide fusion (C-terminal peptide) (PSI (0-1 scale)); higher = more stable (slower turnover)
# experimental.parameters: genetic background: cdc53-1; temperature: 37 C
endpoint.label: protein stability index

INSERT INTO results (primary_sequence, endpoint_label, assay_result) VALUES
  ('VVSVVVLVNSRG', 'protein stability index', 0.501),
  ('RGLWAAIPRKCT', 'protein stability index', 0.741),
  ('YSALHNPPQPVT', 'protein stability index', 0.725),
  ('NASWAFLCYFCV', 'protein stability index', 0.69),
  ('TLCHLTLICVRE', 'protein stability index', 0.253),
  ('LMIVSVRLLFFL', 'protein stability index', 0.39),
  ('VFFRVLVAGCRQ', 'protein stability index', 0.618),
  ('SSLLLLCCLLVG', 'protein stability index', 0.427);
